# EXPERIMENTAL_PROTOCOL: Pharmacokinetic study, oral and intravenous administration in mice
# Design: species or system ICR mice
# EXPERIMENTAL_SETUP: mouse, in vivo; ICR male mice, oral administration, 30 mg/Kg; read-out: Area under plasma concentration-time curve AUC0-last
# Excerpt: This study used ICR male mice as test animals. The plasma concentrations of the test compounds and the reference compound in mice were quantitatively determined at different time points using the LC-MS/MS method following intravenous injection or oral administration to evaluate the pharmacokinetic characteristics of the test compounds in mice. ICR mice (male, 20-30 g, 6-8 weeks old, Beijing Charles River). […]
METRIC: AUC(0-t)

- COCc1cc(C(=O)Nc2cc([C@H]3CC[C@@H](OC(=O)NC(C)C)C3)[nH]n2)n(C)n1 [PF-07104091, reference compound]: 7.52 µg·h/mL

###

# EXPERIMENTAL_PROTOCOL: Pharmacokinetic study, oral and intravenous administration in mice
# Set-up: species or system ICR mice
# EXPERIMENTAL_SETUP: mouse, in vivo; ICR male mice, oral administration, 30 mg/Kg; read-out: Time to peak Tmax
METRIC: Tmax (min)

- COCc1cc(C(=O)Nc2cc([C@H]3CC[C@@H](OC(=O)NC(C)C)C3)[nH]n2)n(C)n1 [PF-07104091, reference compound]: 15

###

# EXPERIMENTAL_PROTOCOL: Pharmacokinetic study, oral and intravenous administration in mice
# Design: species or system ICR mice
# EXPERIMENTAL_SETUP: male, ICR, mouse, in vivo, iv, 5 mg/kg
Each entry below lists one item and its recorded half-life value.
METRIC: half-life (min)

* CON(C)Cc1nn2ccnc(Nc3cc([C@H]4CC[C@@H](OC(=O)NC(C)C)C4)[nH]n3)c2c1F [Compound 6] | 55.8
* CONCc1nn2ccnc(Nc3cc([C@H]4CC[C@@H](OC(=O)NC(C)C)C4)[nH]n3)c2c1F [Compound 5] | 389

###

Each entry below lists one item and its recorded pIC50 value.
# SYSTEM_UNDER_TEST: CDK1/cyclin B1 (Homo sapiens)
# Construct: purchased Carna Biosciences
# Sequence (P06493 whole entry): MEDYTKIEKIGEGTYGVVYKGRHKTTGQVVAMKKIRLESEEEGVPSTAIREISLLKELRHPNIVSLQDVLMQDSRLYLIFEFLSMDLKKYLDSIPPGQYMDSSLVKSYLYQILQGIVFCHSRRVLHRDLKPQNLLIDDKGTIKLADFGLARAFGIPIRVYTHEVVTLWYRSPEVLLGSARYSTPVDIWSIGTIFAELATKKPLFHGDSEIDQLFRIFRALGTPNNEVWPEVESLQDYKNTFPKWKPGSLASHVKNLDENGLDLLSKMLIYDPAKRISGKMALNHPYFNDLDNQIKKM
# Sequence (P14635 whole entry partner): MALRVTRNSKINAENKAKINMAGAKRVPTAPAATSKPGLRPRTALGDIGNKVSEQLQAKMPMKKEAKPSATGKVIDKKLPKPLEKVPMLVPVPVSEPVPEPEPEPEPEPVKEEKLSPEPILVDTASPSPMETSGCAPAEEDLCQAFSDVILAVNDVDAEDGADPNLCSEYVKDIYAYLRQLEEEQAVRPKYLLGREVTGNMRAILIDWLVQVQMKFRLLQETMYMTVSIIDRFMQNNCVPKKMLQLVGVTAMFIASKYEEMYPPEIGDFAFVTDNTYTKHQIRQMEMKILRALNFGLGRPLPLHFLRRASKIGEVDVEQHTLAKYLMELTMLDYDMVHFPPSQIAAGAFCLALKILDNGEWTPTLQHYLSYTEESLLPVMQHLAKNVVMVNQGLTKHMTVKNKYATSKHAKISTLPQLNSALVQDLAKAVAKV
# EXPERIMENTAL_PROTOCOL: In vitro CDK1/cyclin B1 enzyme activity assay (TR-FRET)
# Format: biochemical
# EXPERIMENTAL_SETUP: exact values stated in the text below Table 1; read-out: IC50 against CDK1
pIC50: −log10 of the molar value. Where a name gives a salt, the structure may show the parent alone.
METRIC: pIC50

* CNOCc1nn2ccnc(Nc3cc([C@H]4CC[C@@H](OC(=O)NC(C)C)C4)[nH]n3)c2c1C [Hydrochloride salt of compound 3] | 5.87
* CONCc1nn2ccnc(Nc3cc([C@H]4CC[C@@H](OC(=O)NC(C)C)C4)[nH]n3)c2c1F | 5.82
* CON(C)Cc1nn2ccnc(Nc3cc([C@H]4CC[C@@H](OC(=O)NC(C)C)C4)[nH]n3)c2c1C [Formate salt of compound 2] | 5.39
* CON(C)Cc1nn2ccnc(Nc3cc([C@H]4CC[C@@H](OC(=O)NC(C)C)C4)[nH]n3)c2c1F | 5.46
* CONCc1nn2ccnc(Nc3cc([C@H]4CC[C@@H](OC(=O)NC(C)C)C4)[nH]n3)c2c1C [Formate salt of compound 1] | 5.72

Data credit: patent EP4653431A1
